- Measurement Target: PRT1^ZZ (Arabidopsis thaliana)
Peptide text beside a SMILES is read from it.
Observable: pKd
Answers are plain numbers, as −log10 of the molar value.

// pKd lookup, compound = NCCCC[C@H](NC(=O)[C@@H](N)Cc1ccc(O)cc1)C(=O)N[C@@H](Cc1ccccc1)C(=O)O [YKF, Tyr-Lys-Phe] (H-Tyr-Lys-Phe-OH) , result: 5.00
